Test system: ragweed
Assay: Test C preemergence
Type: in vivo, Ambrosia elatior
Conditions: 125 g ai/ha, preemergence; scale 0 (no effect) to 100 (complete control)
Overview of recorded Ragweed plant response rating for various compounds
Keep the answer to the number alone.

Challenge: // Input: Cc1cnc(Oc2cccc(C#N)c2-n2cc(I)cn2)nc1 . Output its Ragweed plant response rating only.
Response given: 70

New cases:
Challenge: Name the recorded Ragweed plant response rating of the item FCc1cccc(Oc2ncc(Cl)cn2)c1-n1cc(Cl)cn1 in your answer.
Response given: 75

Challenge: For the compound CCOc1cn(-c2c(Br)cccc2Oc2ncc(Cl)cn2)nn1 , give its measured Ragweed plant response rating value.
Response given: 85

Challenge: Identify measured Ragweed plant response rating associated with Clc1cnc(Oc2cccc(Br)c2-n2cc(Br)nn2)nc1
Response given: 85

====

Test system: hairy beggarticks
Experiment: Test E preemergence
Type: in vivo, Bidens pilosa
Conditions: Preemergence, 62 g ai/ha; scale 0 to 100, 0 no effect, 100 complete control
# Plant response rating, Beggarticks per entry
Reply with the value as a number alone.

Example entries and their recorded answers appear below.
Challenge: Give the value of Plant response rating, Beggarticks reported for the following: CCOc1cnn(-c2c(C#N)cccc2Oc2ncc(F)cn2)c1 [Compound 89]
Response given: 60

Challenge: Answer with the recorded Plant response rating, Beggarticks of FC(F)(F)c1cnn(-c2ccccc2Oc2ncc(Br)cn2)c1 [Compound 18] only.
Response given: 0

Challenge: # return recorded Plant response rating, Beggarticks for entry N#Cc1cccc(Oc2ncc(Br)cn2)c1-n1cc(C(F)(F)F)cn1 [Compound 59]
Response given: 0

Next:
Challenge: Fill in Plant response rating, Beggarticks for record N#Cc1cccc(Oc2ncc(F)cn2)c1-n1cc(Cl)cn1 [Compound 73]
Response given: 20

====

Test system: pigweed
Experiment: Test C postemergence
Type: in vivo, Amaranthus retroflexus
Details: 125 g ai/ha, postemergence
MEASURE_NAME: Plant response rating (0 to 100), Pigweed
Output spec: single numeric token, no unit.

Some compounds with recorded Plant response rating (0 to 100), Pigweed:
Challenge: Provide measured Plant response rating (0 to 100), Pigweed value, entry: FC(F)(F)c1cnn(-c2ccccc2Oc2ncc(Cl)cn2)c1 [Compound 16]
Response given: 100

Challenge: Determine its reported Plant response rating (0 to 100), Pigweed: N#Cc1cccc(Oc2ncc(F)cn2)c1-n1cc(Br)cn1 [Compound 62]
Response given: 75

Challenge: Supply recorded Plant response rating (0 to 100), Pigweed for FCc1cccc(Oc2ncc(Cl)cn2)c1-n1cc(Br)cn1 [Compound 83] here.
Response given: 85

***
Challenge: Assign Plant response rating (0 to 100), Pigweed to the following record: N#Cc1cccc(Oc2ncc(F)cn2)c1-n1cc(Cl)cn1 [Compound 73]
Response given: 80

====

Tested on: lambsquarters
Assay: Test C postemergence
Assay type: in vivo, Chenopodium album
Conditions: 125 g ai/ha, postemergence; visual rating, scale 0 to 100 (0 no effect, 100 complete control)
Plant response rating, Lambsquarters values, listed per item
# answer = number (no unit)

# count of solved cases: 4
Challenge: Identify measured Plant response rating, Lambsquarters associated with N#Cc1cccc(Oc2ncc(Cl)cn2)c1-n1cc(-n2ccc(C(F)(F)F)n2)cn1
Response given: 98

Challenge: Item Clc1cnc(Oc2cccc(Br)c2-n2cc(Br)nn2)nc1 : provide Plant response rating, Lambsquarters
Response given: 85

Challenge: Write down Plant response rating, Lambsquarters measured for item CCCOc1cnn(-c2c(C#N)cccc2Oc2ncc(Cl)cn2)c1
Response given: 80

Challenge: Give recorded Plant response rating, Lambsquarters. N#Cc1cnn(-c2c(C#N)cccc2Oc2ncc(F)cn2)c1
Response given: 90

Moving on to the next molecule.
Challenge: Specify Plant response rating, Lambsquarters for Fc1cccc(Oc2ncc(Cl)cn2)c1-n1cc(C2CC2)nn1 and stop.
Response given: 98

====

Barnyardgrass plant response rating by entry:
Tested on: barnyardgrass
Assay: Test C preemergence
Format: in vivo, Echinochloa crus-galli
Details: 62 g ai/ha, preemergence; scale 0 (no effect) to 100 (complete control)
Lab note: record the figure alone, no unit after it.

Some solved cases for reference:
Challenge: Name the recorded Barnyardgrass plant response rating of the item N#Cc1cnn(-c2c(CF)cccc2Oc2ncc(F)cn2)c1 in your answer.
Response given: 70

Challenge: Report measured Barnyardgrass plant response rating; entry is Fc1cccc(Oc2ncc(Cl)cn2)c1-n1cc(I)cn1
Response given: 90

Challenge: Retrieve Barnyardgrass plant response rating measured for N#Cc1cn(-c2c(Br)cccc2Oc2ncc(Cl)cn2)nn1 and print it.
Response given: 45

Challenge: Consider the molecule N#Cc1cccc(Oc2ncc(F)cn2)c1-n1cc(I)cn1 . State its measured Barnyardgrass plant response rating.
Response given: 40

Challenge: Supply recorded Barnyardgrass plant response rating for FCc1cccc(Oc2ncc(F)cn2)c1-n1cc(C(F)(F)F)cn1 here.
Response given: 100

Further cases:
Challenge: Determine from records and report Barnyardgrass plant response rating for CCOc1cnn(-c2c(C#N)cccc2Oc2ncc(Cl)cn2)c1
Response given: 100

Challenge: Tell me measured Barnyardgrass plant response rating for Fc1cnc(Oc2cccc(C(F)F)c2-n2cc(Br)cn2)nc1 please.
Response given: 30

Challenge: Dear colleague, please send me the reported Barnyardgrass plant response rating for FCc1cn(-c2c(F)cccc2Oc2ncc(Cl)cn2)nn1 when you can.
Response given: 70

Challenge: State its Barnyardgrass plant response rating: N#Cc1cccc(Oc2ncc(Br)cn2)c1-n1cc(I)cn1
Response given: 35

====

System: velvetleaf
Assay: Test A postemergence
Type: in vivo, Abutilon theophrasti
Details: 500 g ai/ha, 0 to 100 scale where 0 is no effect and 100 is complete control
MEASURE_NAME: Plant response rating, Velvetleaf
No unit in the answer, only the number.

// solved cases for Plant response rating, Velvetleaf follow
Challenge: Consider the compound C=C(C)c1cccc(Oc2ncc(Cl)cn2)c1-n1cc(Br)cn1 . State its measured Plant response rating, Velvetleaf.
Response given: 100

Challenge: // fetch Plant response rating, Velvetleaf given entry Clc1cnc(Oc2cccc(-c3cccnc3)c2-n2cc(Br)cn2)nc1
Response given: 30

Challenge: Look up Plant response rating, Velvetleaf of Clc1cnc(Oc2cccc(Cl)c2-n2cc(Br)cn2)nc1 and report it.
Response given: 100

Challenge: Indicate the recorded Plant response rating, Velvetleaf value for this compound: O=Cc1cccc(Oc2ncc(Cl)cn2)c1-n1cc(C(F)(F)F)cn1
Response given: 70

From here, focus on the item given below.
Challenge: Using known records, supply Plant response rating, Velvetleaf for N#Cc1cccc(Oc2ncc(I)cn2)c1-n1cc(Cl)cn1
Response given: 70

====

Tested on: lambsquarters
Test: Test E preemergence
Format: in vivo, Chenopodium album
Conditions: 31 g ai/ha, scale 0 to 100 (0 no effect, 100 complete control)
MEASURE_NAME: Lambsquarters plant response rating

Below: 4 molecules and their reported Lambsquarters plant response rating.
Challenge: For N#Cc1cccc(Oc2ncc(F)cn2)c1-n1cc(I)cn1 , write its Lambsquarters plant response rating.
Response given: 65

Challenge: For the molecule N#Cc1cnn(-c2c(C#N)cccc2Oc2ncc(F)cn2)c1 , report Lambsquarters plant response rating.
Response given: 80

Challenge: State its Lambsquarters plant response rating: FC(F)(F)c1cnn(-c2c(Cl)cccc2Oc2ncc(Cl)cn2)c1
Response given: 98

Challenge: Provide Lambsquarters plant response rating value for the following molecule: Clc1cnc(Oc2ccccc2-n2cc(Br)cn2)nc1
Response given: 75

# input for lookup
Challenge: Identify the reported Lambsquarters plant response rating for the following entry. CCOc1cnn(-c2c(C#N)cccc2Oc2ncc(F)cn2)c1
Response given: 20

====

System: johnsongrass
Assay: Test C preemergence
Type: in vivo, Sorghum halepense
Conditions: Sorghum halepense, pre-emergence; 125 g ai/ha, preemergence; scale 0 (no effect) to 100 (complete control); read-out: Johnsongrass plant response rating
Listing of recorded pest or weed control at 125 g/ha by entry.
Give just the number in %; leave the unit off.

Challenge: For N#Cc1cccc(Oc2ncc(Cl)cn2)c1-n1cc(C(F)(F)F)cn1 , write its pest or weed control at 125 g/ha.
Response given: 100

Challenge: Look up pest or weed control at 125 g/ha of FC(F)(F)c1cn(-c2ccccc2Oc2ncc(Cl)cn2)nn1 and report it.
Response given: 95

====

Tested on: large (Lg) crabgrass
Assay: Test A postemergence
Type: in vivo, Digitaria sanguinalis
Conditions: 125 g ai/ha, 0 to 100 scale where 0 is no effect and 100 is complete control
MEASURE_NAME: Crabgrass, Large plant response rating
Enter a number only.

Here's what some known entries look like.
Challenge: Supply reported Crabgrass, Large plant response rating belonging to this compound: Clc1cnc(Oc2cccc(Cl)c2-n2cc(Br)cn2)nc1
Response given: 90

Challenge: Quickly give me recorded Crabgrass, Large plant response rating for O=Cc1cccc(Oc2ncc(F)cn2)c1-n1cc(C(F)(F)F)cn1
Response given: 0

Challenge: For the compound O=[N+]([O-])c1cnc(Oc2ccccc2-n2cc(Br)cn2)nc1 , give its measured Crabgrass, Large plant response rating value.
Response given: 0

Challenge: Given N#Cc1cnn(-c2c(Oc3ncc(Cl)cn3)cccc2C(F)F)c1 , respond with its Crabgrass, Large plant response rating.
Response given: 80

Challenge: Look up and report measured Crabgrass, Large plant response rating for this entry: C#Cc1cnc(Oc2cccc(C#N)c2-n2cc(Br)cn2)nc1
Response given: 10

Challenge: Given N#Cc1cnc(Oc2cccc(C=O)c2-n2cc(Br)cn2)nc1 , respond with its Crabgrass, Large plant response rating.
Response given: 0

Now for the compound whose Crabgrass, Large plant response rating we want.
Challenge: State its Crabgrass, Large plant response rating for this compound: N#Cc1cc(F)cc(Oc2ncc(Br)cn2)c1-n1cc(Br)cn1
Response given: 10
